system: Rattus norvegicus; assay: Hypoglycemic activity in STZ-nicotinamide Wistar rat model of diabetes at 50 mg/kg administered intragastrically as single dose measured after 7 hrs relative to control; format: functional; conditions: route intragastric
Answer False if Activity is under 30%, and True if it is 30% or more.

Cc1c(C(=O)NN2CCCCC2)nn(-c2ccc(Cl)cc2Cl)c1-c1ccccc1 | False
COc1ccc(Cl)cc1C(=O)NCCc1ccc(S(=O)(=O)NC(=O)NC2CCCCC2)cc1 [GLYBURIDE] | True
Cc1c(C(=O)NN2CCCCC2)nn(-c2ccnc3cc(Cl)ccc23)c1-c1ccc(F)cc1 | False
Cc1c(C(=O)NN2CCCCC2)nn(-c2ccc(F)c(Cl)c2)c1-c1ccc(F)cc1 | True
Cc1c(C(=O)NN2CCCCC2)nn(-c2ccc(Cl)cc2Cl)c1-c1ccc(Cl)cc1 | False

Challenge: Given the entry `Cc1c(C(=O)NN2CCCCC2)nn(-c2ccc(F)cc2F)c1-c1ccc(F)cc1` , answer whether its Activity meets or surpasses 30%.
Response given: True

Challenge: Given the entry `Cc1c(C(=O)NN2CCCCC2)nn(-c2ccnc3cc(Cl)ccc23)c1-c1ccc(Cl)cc1` , answer whether its Activity meets or surpasses 30%.
Response given: True

Challenge: Given the entry `Cc1c(C(=O)NN2CCCCC2)nn(-c2ccc(Cl)c(Cl)c2)c1-c1ccc(Cl)cc1` , answer whether its Activity meets or surpasses 30%.
Response given: True

Challenge: Given the entry `Cc1c(C(=O)NN2CCCCC2)nn(-c2ccc(Cl)cc2Cl)c1-c1ccc(C(F)(F)F)cc1` , answer whether its Activity meets or surpasses 30%.
Response given: True

* * *

system: Rattus norvegicus; assay: Hypoglycemic activity in STZ-nicotinamide Wistar rat model of diabetes at 50 mg/kg administered intragastrically as single dose measured after 7 hrs relative to control; assay type: functional; conditions: route intragastric
Answer 0 if Activity is under 30%, and 1 if it is 30% or more.

Below are worked cases with known answers.
Cc1c(C(=O)NN2CCCCC2)nn(-c2ccccc2)c1-c1ccccc1 | 1
Cc1c(C(=O)NN2CCCCC2)nn(-c2ccc(F)cc2F)c1-c1ccc(C(F)(F)F)cc1 | 1
Cc1c(C(=O)NN2CCCCC2)nn(-c2ccc(C(F)(F)F)cc2)c1-c1ccc(Cl)cc1 | 0
Cc1c(C(=O)NN2CCCCC2)nn(-c2ccc(F)c(Cl)c2)c1-c1ccc(Cl)cc1 | 1

Challenge: Given the entry `Cc1c(C(=O)NN2CCCCC2)nn(-c2ccc(C(F)(F)F)cc2)c1-c1ccc(Br)cc1` , answer whether its Activity meets or surpasses 30%.
Response given: 0
